Recorded values, source ChEMBL document CHEMBL2396629.

# study system: Nitric oxide synthase 1 (Homo sapiens, UniProt P29475)
# Sequence (P29475 whole entry): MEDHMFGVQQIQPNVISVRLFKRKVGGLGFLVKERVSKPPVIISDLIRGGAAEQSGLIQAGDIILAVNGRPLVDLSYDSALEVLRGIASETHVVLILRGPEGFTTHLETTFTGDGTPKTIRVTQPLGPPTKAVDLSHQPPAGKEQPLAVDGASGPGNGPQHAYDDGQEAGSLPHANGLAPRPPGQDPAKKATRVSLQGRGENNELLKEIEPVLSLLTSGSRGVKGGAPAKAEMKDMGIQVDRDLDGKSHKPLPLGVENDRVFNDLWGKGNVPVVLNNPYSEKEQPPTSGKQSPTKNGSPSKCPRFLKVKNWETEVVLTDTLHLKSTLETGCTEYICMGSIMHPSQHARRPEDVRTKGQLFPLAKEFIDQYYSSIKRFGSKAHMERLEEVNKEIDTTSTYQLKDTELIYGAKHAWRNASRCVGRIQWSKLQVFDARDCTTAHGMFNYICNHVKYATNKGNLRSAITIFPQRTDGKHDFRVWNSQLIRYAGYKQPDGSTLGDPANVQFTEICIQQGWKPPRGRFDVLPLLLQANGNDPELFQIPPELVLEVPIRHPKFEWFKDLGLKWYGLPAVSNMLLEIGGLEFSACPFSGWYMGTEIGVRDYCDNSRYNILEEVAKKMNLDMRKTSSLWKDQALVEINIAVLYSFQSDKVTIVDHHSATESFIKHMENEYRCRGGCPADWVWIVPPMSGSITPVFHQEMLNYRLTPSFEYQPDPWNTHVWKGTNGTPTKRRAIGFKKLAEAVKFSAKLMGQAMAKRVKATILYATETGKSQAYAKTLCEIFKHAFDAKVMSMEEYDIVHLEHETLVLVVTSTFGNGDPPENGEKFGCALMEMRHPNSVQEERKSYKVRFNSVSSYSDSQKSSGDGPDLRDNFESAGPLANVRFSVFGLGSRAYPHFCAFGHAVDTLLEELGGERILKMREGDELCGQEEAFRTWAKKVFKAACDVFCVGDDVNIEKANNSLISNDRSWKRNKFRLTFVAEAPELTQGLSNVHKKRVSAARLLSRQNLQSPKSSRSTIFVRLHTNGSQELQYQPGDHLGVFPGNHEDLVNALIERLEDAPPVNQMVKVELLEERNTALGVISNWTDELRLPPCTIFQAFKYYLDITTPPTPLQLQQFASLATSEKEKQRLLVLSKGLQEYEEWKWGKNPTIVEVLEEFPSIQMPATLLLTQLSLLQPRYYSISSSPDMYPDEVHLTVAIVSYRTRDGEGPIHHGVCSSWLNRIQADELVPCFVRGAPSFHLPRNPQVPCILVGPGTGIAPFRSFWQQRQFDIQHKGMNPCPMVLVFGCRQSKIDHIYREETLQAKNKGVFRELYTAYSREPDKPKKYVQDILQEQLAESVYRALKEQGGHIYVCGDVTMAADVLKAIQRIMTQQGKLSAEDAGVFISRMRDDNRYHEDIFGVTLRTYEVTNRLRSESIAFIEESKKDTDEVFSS
# method: Inhibition of recombinant nNOS (unknown origin) assessed as conversion of L-[3H]-arginine to L-[3H]-citrulline at 1 mM after 30 mins
result type: inhibition (%)
I only need the number, in %, no unit after it.

Examples with answers:
line notation	study system	unit info	inhibition
COc1cc(N)c(C2=NN(C(=O)c3ccccc3)CC2)cc1OC	Nitric oxide synthase 1 (Homo sapiens, UniProt P29475)	%	25.1
COc1cc(N)c(C2=NN(C(=O)Cc3ccccc3)CC2)cc1OC	Nitric oxide synthase 1 (Homo sapiens, UniProt P29475)	%	35.1
CCC(=O)N1CCC(c2ccccc2N)=N1	Nitric oxide synthase 1 (Homo sapiens, UniProt P29475)	%	36.5

Provide value of inhibition for this record tested with Nitric oxide synthase 1 (Homo sapiens, UniProt P29475): Nc1ccccc1C1=NN(C(=O)Cc2ccccc2)CC1
2.68

Provide value of inhibition for this record tested with Nitric oxide synthase 1 (Homo sapiens, UniProt P29475): CC(=O)N1CCC(c2ccccc2N)=N1
33.7

Provide value of inhibition for this record tested with Nitric oxide synthase 1 (Homo sapiens, UniProt P29475): CCCC(=O)N1CCC(c2ccccc2N)=N1
52.4

###

# study system: Nitric oxide synthase, inducible (Homo sapiens)
# method: Inhibition of recombinant iNOS (unknown origin) assessed as conversion of L-[3H]-arginine to L-[3H]-citrulline at 1 mM after 30 mins
Class Yes: inhibition at least 20%. Class No: inhibition below 20%.

Reference set, count: 8
line notation	label
Nc1ccc(Cl)cc1C1=NN(C(=O)C2CC2)CC1	No
Nc1cc(Cl)c(Cl)cc1C1=NN(C(=O)C2CC2)CC1	No
CCC(=O)N1CCC(c2cc(Cl)ccc2N)=N1	No
CCCCC(=O)N1CCC(c2cc(OC)ccc2N)=N1	No
COc1cc(N)c(C2=NN(C(=O)CCc3ccccc3)CC2)cc1OC	Yes
Nc1ccc(Cl)cc1C1=NN(C(=O)Cc2ccccc2)CC1	Yes
COc1cc(N)c(C2=NN(C(=O)Cc3ccccc3)CC2)c(OC)c1OC	Yes
COc1ccc(N)c(C2=NN(C(=O)C3CCCC3)CC2)c1	No

Hi, just wondering whether Nc1ccccc1C1=NN(C(=O)CCc2ccccc2)CC1 shows inhibition of 20% or higher.
No

Hi, just wondering whether Nc1ccccc1C1=NN(C(=O)C2CC2)CC1 shows inhibition of 20% or higher.
No

Hi, just wondering whether COc1ccc(N)c(C2=NN(C(=O)C3CCC3)CC2)c1 shows inhibition of 20% or higher.
No

###

# study system: UniProt P29475
# method: Inhibition of recombinant nNOS (unknown origin) assessed as conversion of L-[3H]-arginine to L-[3H]-citrulline after 30 mins
result type: IC50
For clarity, give the value followed by its unit.

line notation	IC50
COc1cc(N)c(C2=NN(C(=O)CCc3ccccc3)CC2)c(OC)c1OC	400 µM
COc1cc(N)c(C2=NN(C(=O)CCc3ccccc3)CC2)cc1OC	880 µM

Then this molecule:
Provide value of IC50 for this record tested with UniProt P29475: COc1cc(N)c(C2=NN(C(=O)c3ccccc3)CC2)c(OC)c1OC
530 µM

###

# study system: Nitric oxide synthase, inducible (Homo sapiens)
# method: Inhibition of recombinant iNOS (unknown origin) assessed as conversion of L-[3H]-arginine to L-[3H]-citrulline at 1 mM after 30 mins
inhibition values for the molecules below.
I only need the number, in %, no unit after it.

Examples with answers:
line notation	study system	value observed
COc1ccc(N)c(C2=NN(C(=O)C3CCCCC3)CC2)c1	Nitric oxide synthase, inducible (Homo sapiens)	13.2
COc1cc(N)c(C2=NN(C(=O)c3ccccc3)CC2)c(OC)c1OC	Nitric oxide synthase, inducible (Homo sapiens)	8.14
COc1ccc(N)c(C2=NN(C(=O)CCc3ccccc3)CC2)c1	Nitric oxide synthase, inducible (Homo sapiens)	21.2
CCC(=O)N1CCC(c2ccccc2N)=N1	Nitric oxide synthase, inducible (Homo sapiens)	6.88
COc1cc(N)c(C2=NN(C(=O)Cc3ccccc3)CC2)cc1OC	Nitric oxide synthase, inducible (Homo sapiens)	21
CCCC(=O)N1CCC(c2cc(OC)ccc2N)=N1	Nitric oxide synthase, inducible (Homo sapiens)	13.1
CC(=O)N1CCC(c2cc(Cl)ccc2N)=N1	Nitric oxide synthase, inducible (Homo sapiens)	1.03
Nc1ccc(Cl)cc1C1=NN(C(=O)c2ccccc2)CC1	Nitric oxide synthase, inducible (Homo sapiens)	17
COc1ccc(N)c(C2=NN(C(=O)Cc3ccccc3)CC2)c1	Nitric oxide synthase, inducible (Homo sapiens)	15
Nc1cc(Cl)c(Cl)cc1C1=NN(C(=O)Cc2ccccc2)CC1	Nitric oxide synthase, inducible (Homo sapiens)	49.2

Then this molecule:
Recorded inhibition of Nc1ccc(Cl)cc1C1=NN(C(=O)CCc2ccccc2)CC1 , please.
31.4

###

# study system: Nitric oxide synthase 1 (Homo sapiens)
# method: Inhibition of recombinant nNOS (unknown origin) assessed as conversion of L-[3H]-arginine to L-[3H]-citrulline at 1 mM after 30 mins
result type: inhibition (%)
I only need the number, in %, no unit after it.

Recorded inhibition of CCCC(=O)N1CCC(c2cc(OC)ccc2N)=N1 , please.
34.7

Recorded inhibition of CC(=O)N1CCC(c2cc(Cl)ccc2N)=N1 , please.
47.6

Recorded inhibition of Nc1ccc(Cl)cc1C1=NN(C(=O)Cc2ccccc2)CC1 , please.
18.2

Recorded inhibition of Nc1ccc(Cl)cc1C1=NN(C(=O)c2ccccc2)CC1 , please.
61.1

Recorded inhibition of COc1ccc(N)c(C2=NN(C(=O)C3CCC3)CC2)c1 , please.
38.3

Recorded inhibition of COc1cc(N)c(C2=NN(C(=O)Cc3ccccc3)CC2)c(OC)c1OC , please.
48.4

###

# study system: Nitric oxide synthase, inducible (Homo sapiens) (UniProt P35228)
# Sequence (P35228 whole entry): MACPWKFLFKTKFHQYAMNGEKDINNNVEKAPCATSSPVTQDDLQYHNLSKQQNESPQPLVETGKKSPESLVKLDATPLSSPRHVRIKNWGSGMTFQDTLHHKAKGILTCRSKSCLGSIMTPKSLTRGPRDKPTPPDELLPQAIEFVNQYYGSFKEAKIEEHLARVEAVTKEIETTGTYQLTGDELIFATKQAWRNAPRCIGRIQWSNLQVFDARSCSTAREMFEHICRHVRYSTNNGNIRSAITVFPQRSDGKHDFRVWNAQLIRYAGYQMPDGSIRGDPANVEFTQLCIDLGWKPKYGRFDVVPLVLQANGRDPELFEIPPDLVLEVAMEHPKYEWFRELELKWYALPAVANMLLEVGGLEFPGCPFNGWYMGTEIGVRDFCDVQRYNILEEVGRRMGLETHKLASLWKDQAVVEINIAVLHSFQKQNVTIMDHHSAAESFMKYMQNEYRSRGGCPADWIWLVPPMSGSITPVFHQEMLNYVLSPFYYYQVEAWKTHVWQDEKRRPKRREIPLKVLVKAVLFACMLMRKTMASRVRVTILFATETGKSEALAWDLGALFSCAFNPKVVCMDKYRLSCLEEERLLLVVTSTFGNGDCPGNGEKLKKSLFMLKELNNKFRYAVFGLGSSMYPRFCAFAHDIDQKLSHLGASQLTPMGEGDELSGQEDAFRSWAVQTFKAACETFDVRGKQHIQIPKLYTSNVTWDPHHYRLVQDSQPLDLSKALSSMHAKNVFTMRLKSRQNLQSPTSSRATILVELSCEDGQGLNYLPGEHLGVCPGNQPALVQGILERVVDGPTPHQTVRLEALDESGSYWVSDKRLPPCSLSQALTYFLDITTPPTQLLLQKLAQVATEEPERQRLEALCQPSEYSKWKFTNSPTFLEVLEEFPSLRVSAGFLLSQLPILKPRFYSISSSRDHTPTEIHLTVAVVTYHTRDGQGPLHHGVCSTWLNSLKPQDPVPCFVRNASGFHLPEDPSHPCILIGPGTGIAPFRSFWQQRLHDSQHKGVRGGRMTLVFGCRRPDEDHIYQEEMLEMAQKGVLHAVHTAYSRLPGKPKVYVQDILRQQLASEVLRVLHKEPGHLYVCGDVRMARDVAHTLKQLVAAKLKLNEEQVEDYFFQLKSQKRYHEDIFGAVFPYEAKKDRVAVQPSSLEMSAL
# method: Inhibition of recombinant iNOS (unknown origin) assessed as conversion of L-[3H]-arginine to L-[3H]-citrulline at 1 mM after 30 mins
Kindly note that classification relies on inhibition with these boundaries: low group (below 10%), middle group (10% to below 30%), high group (30% or more)

Reference set, count: 3
line notation	label
COc1ccc(N)c(C2=NN(C(C)=O)CC2)c1	middle group
CCC(=O)N1CCC(c2cc(OC)ccc2N)=N1	middle group
COc1ccc(N)c(C2=NN(C(=O)C3CC3)CC2)c1	middle group

Bin this entry: Nc1ccccc1C1=NN(C(=O)c2ccccc2)CC1
low group

Bin this entry: Nc1cc(Cl)c(Cl)cc1C1=NN(C(=O)CCc2ccccc2)CC1
high group

Bin this entry: Nc1ccccc1C1=NN(C(=O)Cc2ccccc2)CC1
low group

Bin this entry: COc1cc(N)c(C2=NN(C(=O)c3ccccc3)CC2)cc1OC
middle group

Bin this entry: COc1cc(N)c(C2=NN(C(=O)CCc3ccccc3)CC2)c(OC)c1OC
middle group

Bin this entry: CCCC(=O)N1CCC(c2cc(Cl)ccc2N)=N1
low group

Bin this entry: Nc1cc(Cl)c(Cl)cc1C1=NN(C(=O)c2ccccc2)CC1
high group

Bin this entry: COc1ccc(N)c(C2=NN(C(=O)c3ccccc3)CC2)c1
middle group

Bin this entry: COc1cc(N)c(C2=NN(C(=O)C3CC3)CC2)cc1OC
middle group

Bin this entry: CC(=O)N1CCC(c2ccccc2N)=N1
low group
